// provenance: a melting point compilation (Tetko et al.; mined from patent text by program, amines drawn as free bases though some values may be those of a salt)

Reported values of melting point for individual entries

Molecule	melting point
FC(F)(F)c1ccc2nccc(Br)c2c1	56 °C
CN1Cc2c(cc3ccc4c(c3c2-c2ccc3c(c2)OCO3)OCO4)C1=O	234 to 236 °C
Cc1ccccc1Nc1nc(N2CCCC2)nc2ccccc12	152 to 154 °C
COC(=O)C(CC(=O)c1ccccc1)SC(C)=O (stereo unspecified)	53.5 to 54 °C
COc1cc2c(cc1OC)[C@@H]1CN(C)CC[C@@H]1N=C2c1ccc(Cl)c(Cl)c1 (relative stereo)	183 to 184 °C
CC(C)(C)c1cc(-c2nc(CN3CCCC3)no2)cc(C(C)(C)C)c1O	100 to 102 °C
Cc1cc(Cl)cc2c1OCCCC2NS(C)(=O)=O (stereo unspecified)	154 to 156 °C
Cc1ccc(-c2nc(COc3ccc(CCCn4ccnc4)cc3)co2)s1	83 to 84 °C
C#Cc1cccc(Oc2nc(Oc3cccc(C#C)c3)nc(-c3ccccc3)n2)c1	139 to 144 °C
CCSc1c(CO)nc(C)n1Cc1ccc(-c2ccccc2C(=O)O)cc1	205 °C
CS(=O)(=O)c1ccc(-c2cnn(Cc3ncc(Cl)s3)c(=O)c2-c2ccc(F)cc2)cc1	185 to 186 °C
CCC1OCc2c1cnc(C)c2O (stereo unspecified)	172 °C
CCC(c1cc(C(=O)Nc2ccc(-c3ccc(C(=O)NS(C)(=O)=O)cc3C)cc2)ccc1OC)N(C)C (stereo unspecified)	253 to 254 °C
CCC(=S)OC1(C(=O)COC(=O)C(C)C)CCC2C3CC(C)C4=CC(=O)C=CC4(C)C3C(O)CC21C (stereo unspecified)	151 to 152 °C
Cc1cc(C(=O)NC2CC2)ccc1N1CCN(Cc2cnc3c(c2)NC(=O)[C@@H]2CCCN32)CC1	227 to 234 °C
CCOP(=O)(OCC)C(CNC=NNC(=O)c1nc2ccccc2[nH]1)P(=O)(OCC)OCC	143 °C
COC(OC)c1cc(C)nc(N)n1	69 to 71 °C
Clc1cc2nc(NC3CC3)[nH]c2cc1Cl	223 to 225 °C
Cc1cc2ccccc2c(-c2cccc(I)c2)n1	77 to 78 °C
O=C(NCc1ccc(Cl)cc1)c1nnc2ccc(I)cc2c1O	307 to 308 °C
COc1cc([N+](=O)[O-])ccc1F	69 to 71 °C
